- Test system: platelet aggregation
- test: In vitro inhibition of ADP (1 μM)-induced platelet aggregation (turbidimetric method of Born, platelet-rich plasma)
- Type: cell-based, guinea-pigs of Hartley strain
- reported conditions: Cavia porcellus, Platelet, guinea-pig PRP, preincubated 37° C. for 10 minutes
reported metric: IC50 (µg/mL)

The examples below pair each entry with its known result.
CCCCC[C@H](O)/C=C/[C@H]1[C@H](O)CC(=O)[C@@H]1CC(F)CCCCC(=O)O (stereo partly drawn) [APG - 21, 6-fluoro-PGE1]; 0.1
CCCCC[C@H](O)/C=C/[C@H]1[C@H](O)CC(=O)[C@@H]1C/C(F)=C\CCCC(=O)O [APG - 5, 6-fluoro-PGE2]; 0.49

[I] CCCC[C@H](C)C[C@H](O)/C=C/[C@H]1[C@H](O)CC(=O)[C@@H]1CC(F)CC/C=C/C(=O)O (stereo partly drawn) [APG - 29, Δ^2-(17S)-17,20-dimethyl-6-fluoro-PGE1]
[II] CCCCC[C@H](O)/C=C/[C@H]1[C@H](O)CC(=O)[C@@H]1/C=C(/F)CCCCC(=O)O [APG - 2, (6E)-Δ^6-6-fluoro-PGE1]
[III] CCCC[C@H](C)C[C@H](O)/C=C/[C@H]1[C@H](O)CC(=O)[C@@H]1CC(F)CCCCC(=O)O (stereo partly drawn) [APG - 24, (17S)-17,20-dimethyl-6-fluoro-PGE1]
[IV] CCCC[C@H](C)C[C@H](O)/C=C/[C@H]1[C@H](O)CC(=O)[C@H]1CC(F)CCCCC(=O)O (single isomer, unassigned; ent-17) [APG - 25]
Please list these in order of increasing IC50. Thank you! Provide your answer as the labels ordered per the instruction. I, III, IV, II

[1] CCCCC[C@H](O)/C=C/[C@H]1[C@H](O)CC(=O)[C@@H]1C/C(F)=C\CCCC(=O)OC [APG - 7, 6-fluoro-PGE2 methyl ester]
[2] CCCC[C@H](C)C[C@H](O)/C=C/[C@H]1[C@H](O)CC(=O)[C@H]1CC(F)CC/C=C/C(=O)O (stereo partly drawn) [APG - 30]
[3] CCCC[C@H](C)C[C@H](O)/C=C/[C@H]1[C@H](O)CC(=O)[C@@H]1C/C(F)=C\CCCC(=O)O [APG - 27, (17S)-17,20-dimethyl-6-fluoro-PGE2]
Please list these in order of increasing IC50. Thank you! Provide your answer as the labels ordered per the instruction. 2, 3, 1
(2: 0.00105 µg/mL, 3: 0.0427 µg/mL, 1: 0.655 µg/mL)
